test: Toxicity liver stage against HepG2, at 10uM; format: cell-based; set-up: test concentration 10 uM, cell line HepG2-A16-CD81EGFP; details: human, HepG2-A16-CD81EGFP cells; read-out: INHIBITION
Recorded cytotoxicity at 10 µM by entry
measuredParameter: cytotoxicity at 10 µM (%)

- molecule: "O=c1c2c(ncn1CCO)nc1n2CCC1"
  unit: "%"
  reportedMeasurement: -11.3
- molecule: "Cc1cnc(CN2CCOC(Cn3nc(C)nc3C)C2)cn1 (configuration not stated)"
  unit: "%"
  reportedMeasurement: 1.46
- molecule: "CC(C)CNC(=O)CNc1c(NCc2ccccn2)c(=O)c1=O"
  unit: "%"
  reportedMeasurement: -9.06
- molecule: "Cn1nc2c(c1NC(=O)c1cccs1)CCC2"
  unit: "%"
  reportedMeasurement: 6.16
- molecule: "NS(=O)(=O)CC1CCN(c2ncccc2C(F)(F)F)CC1"
  unit: "%"
  reportedMeasurement: -3.16
- molecule: "O=C(NCCCNc1ccc(C(F)(F)F)cn1)c1ccc(F)cc1"
  unit: "%"
  reportedMeasurement: -8.72
- molecule: "NC(=O)Cn1c(CO)cnc1SCc1ccccc1Cl"
  unit: "%"
  reportedMeasurement: 0.252
- molecule: "CC(=O)N1CCN(C(=O)NCc2ccccc2Cn2ccnc2)CC1"
  unit: "%"
  reportedMeasurement: 0.243
- molecule: "CNC(=O)CS(=O)(=O)C1CCN(S(=O)(=O)c2c(F)cccc2F)CC1"
  unit: "%"
  reportedMeasurement: -22
- molecule: "CCn1cc(-c2cc(C(F)F)nc3sc(C(N)=O)c(N)c23)c(C)n1"
  unit: "%"
  reportedMeasurement: 3.04
- molecule: "O=C(Cn1cnc2cc3c(cc21)OCCCO3)NC1CCCCC1"
  unit: "%"
  reportedMeasurement: 5.68
- molecule: "Cc1csc(C2(NC(=O)CCc3ccncc3)CCCC2)n1"
  unit: "%"
  reportedMeasurement: -12.1
